The entries below are paired with their reported protein stability index.
B1: ZNF263 (parent)
chain: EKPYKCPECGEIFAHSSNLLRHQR

# Variants of: B1
# TEST_DESCRIPTION: protein stability index of a GFP-peptide fusion (GPS, HEK-293T) (PSI 1-6); higher = more stable;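 further: lentivirally expressed fusions sorted by FACS into six bins by GFP to DsRed ratio, PSI derived from sequencing read proportions per bin multiplied by bin number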
# REPORTED_CONDITIONS: c terminus: a fixed tail appended
ATTRIBUTE_MEASURED: protein stability index

> print(dat)
    mutation.descriptor  observed.value
 1                 L19S            2.61
 2                  K2R            2.64
 3                  E1F            2.13
 4                  E8P            2.74
 5                  C6Y            3.05
 6                 H22D            3.17
 7                  C9E            4.06
 8                 S17N            2.75
 9                  C6N            3.74
10                 A14K            2.82
11                  C9V            2.92
12                 S16G            2.48
13                  P3T            2.85
14                 I12A            2.29
15                 S17M            2.12
16                 S17E            4.22
17                 L19A            1.84
18                 R21A            3.84
19                 G10N            1.58
20                 I12G            1.17
21                  K5E            3.02
22                 F13K            2.55
23                 I12M            2.04
24                 H22P            1.35
25                  C6F            3.46
26                 I12C            1.26
27                  E8W            1.88
28                  P3H            1.88
29                 H22I            1.34
30                 H22F            1.66
31                  P7Y             2.7
32                 E11Y            3.05
33                 R21N            3.29
34                 G10R            2.37
35                  E1K            1.83
36                 I12H            1.57
37                 G10H            2.59
38                  C6S            2.88
39                  E8R            2.85
40                 S16W            3.44
41                  P3M            2.78
42                 Q23P            2.11
43                 R24A            4.17
44                  P3V            2.13
45                  C9D            3.74
46                  C9A            3.62
